TARGET_OR_TEST_SYSTEM: SARS-CoV-2 Omicron BF.7 RBD (SARS-CoV-2 Omicron BF.7, L452R)
PROTOCOL: BLI
pKd: −log10 of the molar value.
METRIC_NAME: pKd

[
  {
    "BINDER": "BD56-104 (antibody, V domains shown) VH: QVQLVQSGAEVKTPGSSVKVSCKASGGTFGSHSITWVRQAPGQGLEWMGRVIPILGIPDFAESFQGRVAITADRSTSTAHMELSRLRSEDTAVYYCARDVGYSGSGSSNYFDSWGQGTLVTVSS VL: QSVLTQPPSVSGAPGQRVTISCTGSNSNIGAGYDVHWYRQLPGTAPKLLIYVNNNRPSGVPDRFSGSRSGASASLAITGLQAEDEAEYYCQSYDSSLSGSIFGGGTKLTVL",
    "DATA_VALUE": "> 8.68"
  }
]

(Q) Report pKd for R1-32 (antibody, V domains shown) VH: EVQLVESGAEVKKPGSSVKVSCKASGGTFSSYAISWVRQAPGQGLEWMGGIIPILGIANYAQKFQGRVTITADKSTSTAYMELSSLRSEDTAVYYCARENGYSGYGAAANFDLWGRGTLVTVSS VL: QSVLTQPPSVSGAPGQRVTISCTGSSSNIGAGYDVHWYQQLPGTAPKLLIYGNSNRPSGVPDRFSGSKSGTSASLAITGLQAEDEADYYCQSYDSSLSGSVFGGGTKLTVL please.
(A) < 7.26

(Q) Report pKd for C807 (antibody, V domains shown) VH: QVQLVQSGAEAKKPGSSVKVSCKASGGTFKSYIINWVRQAPGQGLEWMGEIIPIFGTANYAQKFQGRVTSTADESTSTAYMELSSLKSEDTAVYYCARGRGYSGYGASYYFDYWGQGTLVTVSS VL: QSVLTQPPSVSGAPGQRVTISCTGSNSNIGAGYDVHWYQQLPGTAPKLLIYANSNRPSGVPDRFSGSKSGTSASLAITGLQAEDEADYYCQSYDSGLSGSVFGGGTKLTVL please.
(A) > 8.68

(Q) Report pKd for BD56-597 (antibody, V domains shown) VH: QVQLVQSGAEVKKPGSSVKVSCKASGGTFSTYPISWVRQAPGQGVEWMGAIIPILGTTDYAQIFQGRVTITADKSTSTAYMELSSLRPEDTAVYYCARERGYSGYGAAYYFDSWGQGTLVTVSS VL: QSVLTQPPSVSGAPGQRVTISCTGSDSNIGAGYDVHWYQQLPGTAPKLLIYVNINRPSGVPDRFSGSKSATSASLAITGLQAEDEADYYCQSYDSSLSGVVFGGGTKLTVL please.
(A) > 8.68
